System: HEK-293T
Assay Comment: Multiplex assay against HEK293T
Format: toxicity, cell-based
Conditions Used: human, 48 h, 1 µM, compound concentration 1 uM, replicate 2

Compound	Unit Annotation	Population Normal (%)
CC(C)(C)c1cc(NC(=O)Nc2ccc(-c3cn4c(n3)sc3cc(OCCN5CCOCC5)ccc34)cc2)no1	%	97
O=C(CCCc1ccccc1)Nc1nc2ccccc2c(=O)s1	%	95
CC(C)c1noc(N2CCC(COc3ccc(-c4ccc(S(C)(=O)=O)cc4)nc3)CC2)n1	%	98
NCCc1cn(S(=O)(=O)c2c(Cl)nc3sccn23)c2ccccc12.O=C(O)C(=O)O	%	94
N#Cc1c(Oc2cccc(OS(=O)(=O)CCCC(F)(F)F)c2)cccc1C(F)(F)F	%	94
Cl.N=C(N)NC(=O)Cc1c(Cl)cccc1Cl [GUANFACINE HYDROCHLORIDE]	%	92

* * *

Test system: HEK-293T
Assay Comment: Multiplex assay against HEK293T
Assay type: toxicity, cell-based
Conditions Used: human, 12 h, 10 µM, compound concentration 10 uM, replicate 2
Below, each entry is listed alongside its reported Population Fragmented Nuclei (%).

Molecule	Population Fragmented Nuclei (%)
C[C@H](N)COC(=O)[C@@H](CCCCN)NC(=O)Cc1c(-c2ccc3ccccc3c2)[nH]c2c1ccc1ccccc12	5
CN1CCN(c2cc(-c3ccccc3)nc(N)n2)CC1	6
CCCOc1ccc2[nH]cc(C3=CCNCC3)c2n1.Cl	6
Cc1onc(-c2ccccc2Cl)c1C(=O)N(C)c1ccc(Cl)cc1	4
COc1ccccc1N1CCN(C[C@@H](C(=O)NC(C)(C)C)c2ccccc2)CC1.Cl.Cl	5
CCc1cc2cc(NS(=O)(=O)c3ccc(C#N)cc3)ccc2n(CC)c1=O	6
CN[C@@H](C)C(=O)N[C@H](C(=O)N1CCC[C@H]1C(=O)Nc1snnc1-c1ccccc1)C1CCCCC1	7
COc1cccc2c1c(NS(=O)(=O)c1ccc(Cl)s1)nn2Cc1cccc(CNC(=O)C(C)(C)O)c1	5
COC[C@@H](c1ccc(C(F)(F)F)cc1)N1CCN(C2(C)CCN(C(=O)c3c(C)ncnc3C)CC2)C[C@@H]1C.O=C(O)/C=C\C(=O)O [VICRIVIROC MALEATE]	5

* * *

Tested on: Fibroblast
Assay Comment: Multiplex assay against human fibroblast
Type: toxicity, cell-based
Conditions Used: 48 h, 10 µM, compound concentration 10 uM, replicate 2
This section presents compounds with their documented Population Mitochondria Different-Phenotype (%) values.
Metric Name: Population Mitochondria Different-Phenotype (%)

Compound	Readout Value
CC(C)COc1ccc(CNC(=O)N(Cc2ccc(F)cc2)C2CCN(C)CC2)cc1	41
O=C(CCCc1ccccc1)Nc1nc2ccccc2c(=O)s1	14
N#Cc1cc(F)cc(-c2nc(-c3ccc(F)cn3)no2)c1	5
Cl.N=C(N)NC(=O)Cc1c(Cl)cccc1Cl [GUANFACINE HYDROCHLORIDE]	2
CN1CCN(c2cc(-c3ccccc3)nc(N)n2)CC1	9
CCCCC1=NC2(CCCC2)C(=O)N1Cc1ccc(-c2ccccc2-c2nnn[nH]2)cc1	1
CCCOc1ccc2[nH]cc(C3=CCNCC3)c2n1.Cl	13
COC[C@@H](c1ccc(C(F)(F)F)cc1)N1CCN(C2(C)CCN(C(=O)c3c(C)ncnc3C)CC2)C[C@@H]1C.O=C(O)/C=C\C(=O)O [VICRIVIROC MALEATE]	10
NCCc1cn(S(=O)(=O)c2c(Cl)nc3sccn23)c2ccccc12.O=C(O)C(=O)O	24
